Target: HDAC6 enzyme (Homo sapiens, UniProt Q9UBN7)
Construct: HDAC6 enzyme prepared by transducing full length HDAC6 gene into Sf-9 insect cells; GST; purchased SignalChem; host or cells: Sf-9 insect cells
Sequence (Q9UBN7 1-1215): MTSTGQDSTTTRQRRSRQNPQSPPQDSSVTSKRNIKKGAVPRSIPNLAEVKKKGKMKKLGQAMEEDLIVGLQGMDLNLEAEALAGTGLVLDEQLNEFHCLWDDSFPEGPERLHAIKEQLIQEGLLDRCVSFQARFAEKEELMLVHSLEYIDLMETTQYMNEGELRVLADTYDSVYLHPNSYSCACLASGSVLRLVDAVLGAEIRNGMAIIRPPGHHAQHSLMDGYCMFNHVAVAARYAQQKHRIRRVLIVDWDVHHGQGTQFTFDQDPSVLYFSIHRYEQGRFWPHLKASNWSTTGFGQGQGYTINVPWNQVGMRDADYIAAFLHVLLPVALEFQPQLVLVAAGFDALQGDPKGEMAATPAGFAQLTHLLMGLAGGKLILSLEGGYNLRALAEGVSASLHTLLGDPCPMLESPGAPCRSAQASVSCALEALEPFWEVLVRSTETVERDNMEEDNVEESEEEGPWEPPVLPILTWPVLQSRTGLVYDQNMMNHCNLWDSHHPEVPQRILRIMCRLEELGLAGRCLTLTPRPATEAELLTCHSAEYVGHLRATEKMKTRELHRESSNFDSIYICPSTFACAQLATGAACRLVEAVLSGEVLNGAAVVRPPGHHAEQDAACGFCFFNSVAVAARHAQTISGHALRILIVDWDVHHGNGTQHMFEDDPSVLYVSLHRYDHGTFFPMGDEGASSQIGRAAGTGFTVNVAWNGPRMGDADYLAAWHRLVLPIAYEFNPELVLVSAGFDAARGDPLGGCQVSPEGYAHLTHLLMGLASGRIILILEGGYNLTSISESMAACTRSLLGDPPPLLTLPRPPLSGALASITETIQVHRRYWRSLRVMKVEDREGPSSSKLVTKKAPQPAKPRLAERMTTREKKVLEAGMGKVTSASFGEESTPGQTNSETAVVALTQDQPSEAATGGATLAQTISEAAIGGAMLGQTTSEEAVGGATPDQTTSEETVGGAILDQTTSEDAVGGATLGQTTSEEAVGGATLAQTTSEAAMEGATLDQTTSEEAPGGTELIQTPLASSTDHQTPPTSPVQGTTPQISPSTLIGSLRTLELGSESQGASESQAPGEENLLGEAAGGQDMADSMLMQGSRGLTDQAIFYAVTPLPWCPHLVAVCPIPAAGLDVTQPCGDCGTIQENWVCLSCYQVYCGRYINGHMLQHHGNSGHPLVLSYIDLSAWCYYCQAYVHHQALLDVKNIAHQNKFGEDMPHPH
Experiment: HDAC6 enzyme inhibitory assay (HDAC-Glo I/II Assay kit)
Type: biochemical
Details: wells without enzyme = 100% inhibition, read-out: HDAC6 inhibitory rate (%) (10 μM)
reportedMetric: inhibition at 10 µM (%)

[
  {
    "compound": "O=C1c2cc(-c3nnc(C(F)F)o3)ccc2CN1[C@H](C1CCOCC1)[C@@H](O)c1ccc(F)cc1",
    "inhibition at 10 µM, %": 100
  },
  {
    "compound": "O=C1c2cc(-c3nnc(C(F)F)o3)ccc2CN1[C@H](c1ccc(F)cc1)[C@@H](O)c1ccc(C(F)(F)F)nc1 (single isomer, unassigned) [Example 54]",
    "inhibition at 10 µM, %": 100
  },
  {
    "compound": "O=C1c2cc(-c3nnc(C(F)F)o3)ccc2CN1[C@H](c1ccc(F)cc1)[C@@H](O)c1cccnc1 (single isomer, unassigned)",
    "inhibition at 10 µM, %": 99
  },
  {
    "compound": "O=C1c2cc(-c3nnc(C(F)F)o3)ccc2CN1[C@H](c1ccc(F)nc1)[C@@H](O)c1ccc(F)c(F)c1 (racemic)",
    "inhibition at 10 µM, %": 100
  },
  {
    "compound": "O=C1c2cc(-c3nnc(C(F)F)o3)ccc2CN1[C@H](c1ccc(F)cn1)[C@@H](O)c1ccccn1 (single isomer, unassigned)",
    "inhibition at 10 µM, %": 100
  },
  {
    "compound": "O=C1c2cc(-c3nnc(C(F)F)o3)ccc2CN1[C@@H](c1ccccc1)[C@@H](O)c1ccccc1",
    "inhibition at 10 µM, %": 99
  },
  {
    "compound": "O=C1c2cc(-c3nnc(C(F)F)o3)ccc2CN1[C@H](c1ccc(F)cc1)[C@@H](O)c1ccc(F)nc1 (single isomer, unassigned) [Example 131]",
    "inhibition at 10 µM, %": 99
  },
  {
    "compound": "O=C1c2cc(-c3nnc(C(F)F)o3)ccc2CN1[C@H](C1CCC(F)(F)CC1)[C@@H](O)c1ccc(F)nc1 (racemic)",
    "inhibition at 10 µM, %": 100
  },
  {
    "compound": "O=C1c2cc(-c3nnc(C(F)F)o3)ccc2CN1[C@H](c1ccc(F)cc1)[C@@H](O)C1CCOCC1 (racemic)",
    "inhibition at 10 µM, %": 99
  },
  {
    "compound": "O=C1c2cc(-c3nnc(C(F)F)o3)ccc2CN1[C@H](C1CCOCC1)[C@@H](O)c1ccc(F)c(Cl)c1 (racemic)",
    "inhibition at 10 µM, %": 101
  },
  {
    "compound": "O=C1c2cc(-c3nnc(C(F)F)o3)ccc2CN1[C@H](C1CCOCC1)[C@@H](O)c1cccc(Cl)c1 (single isomer, unassigned)",
    "inhibition at 10 µM, %": 101
  },
  {
    "compound": "O=C1c2cc(-c3nnc(C(F)F)o3)ccc2CN1[C@H](C1CC1)[C@@H](O)c1ccc(Cl)cn1 (racemic)",
    "inhibition at 10 µM, %": 98
  },
  {
    "compound": "Cn1cc([C@H]([C@@H](O)c2ccccc2)N2Cc3ccc(-c4nnc(C(F)F)o4)cc3C2=O)cn1 (racemic)",
    "inhibition at 10 µM, %": 100
  },
  {
    "compound": "O=C1c2cc(-c3nnc(C(F)F)o3)ccc2CN1[C@H](c1cccnn1)[C@@H](O)c1cccc(Cl)c1 (relative stereo) [Example 121]",
    "inhibition at 10 µM, %": 101
  },
  {
    "compound": "O=C1c2cc(-c3nnc(C(F)F)o3)ccc2CN1[C@H](C1CC1)[C@@H](O)c1ccccn1",
    "inhibition at 10 µM, %": 100
  },
  {
    "compound": "O=C1c2cc(-c3nnc(C(F)F)o3)ccc2CN1[C@H](c1ccccn1)[C@@H](O)c1cccc(F)n1",
    "inhibition at 10 µM, %": 102
  },
  {
    "compound": "O=C1c2cc(-c3nnc(C(F)F)o3)ccc2CN1[C@H](C1CC1)[C@H](O)c1ccc(F)cn1",
    "inhibition at 10 µM, %": 99
  },
  {
    "compound": "O=C1c2cc(-c3nnc(C(F)F)o3)ccc2CN1[C@H](c1ncccn1)[C@@H](O)c1cccc(F)c1 (single isomer, unassigned)",
    "inhibition at 10 µM, %": 101
  }
]
